- methodDescription: viability loss of HPDE-C7K cells – cell-based, fluorescence, HTS, primary screen (AID 431);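 note: 0% = DMSO solvent wells and 100% = doxorubicin-treated wells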
- conditionDescription: HPDE-C7K KRASV12 cells, Alamar Blue viability, 48 h; at 10 µM; hits give high values
Out of some 63,000 compounds screened, about 1,100 (1.7%) were called active. What follows is part of a selection rich in actives, with near analogues and random picks from the rest. Results with a measured potency or affinity are listed apart.
The following molecules are listed with their measured cytotoxicity values.
endpointName: cytotoxicity

* Cc1nonc1NC(=O)Nc1cccnc1 | 5.4% (inactive)
* COc1ccc(N(C(=O)c2cccc(OC)c2OC)C2C=CS(=O)(=O)C2)cc1 (configuration not stated) | -2.9% (inactive)
* O=C(COc1ccc2ccccc2c1Br)N1CCOCC1 | -30.2% (inactive)
* O=C(NCC1CCCO1)C1C2C=CC3(CN(Cc4cccs4)C(=O)C13)O2 (configuration not stated) | -19.1% (inactive)
* CN(C1CCCCC1)S(=O)(=O)c1ccc(NC(=O)C2CCCCC2C(=O)O)cc1 (configuration not stated) | -5.7% (inactive)
* Cn1c(-c2ccc3c(c2)OCO3)cnc1N | 8.4% (inactive)
* Cc1ccc(CNc2ncc(-c3ccc4c(c3)OCO4)n2C)cc1 | -5.9% (inactive)
* Cn1c(-c2ccc3c(c2)OCO3)cnc1NCc1ccccc1 | -4.5% (inactive)
* N#Cc1c(N)oc(-c2ccccc2)c1-c1ccccc1 | -9.5% (inactive)
* Cc1ccc(-n2c3c(cc(C(=O)Nc4cccc(C)n4)c2=O)C(=O)CCC3)cc1 | -27.1% (inactive)
* Cc1nnc(SCC(=O)NCc2cccs2)n1-c1ccccc1 | -5.1% (inactive)
* N#Cc1c(/N=C/N2CCCC2)oc(-c2ccccc2)c1-c1ccccc1 | 15.9% (inactive)

* * *

- methodDescription: viability loss of HPDE-C7K cells – cell-based, fluorescence, HTS, primary screen (AID 431);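 note: 0% = DMSO solvent wells and 100% = doxorubicin-treated wells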
- conditionDescription: HPDE-C7K KRASV12 cells, Alamar Blue viability, 48 h; at 10 µM; hits give high values
Among all 63,000 compounds or so, about 1,100 (1.7%) were called active. Only a selection was taken, and actives are over-represented in it overall. Results with a measured potency or affinity are listed apart.
Hi! Could you tag entries with cytotoxicity below 20% as True, and those at or above as False? Much appreciated.

• COC(=O)c1sc(N)c(C(=O)OC)c1COC(=O)c1c(C)noc1C = False
• Cc1ccc2c(c1)[nH]c1c(N3CCN(Cc4ccccc4)CC3)ncnc12 = False
• Cc1ccc2[nH]c(C)c(CN(C)C3CCN(C)CC3)c(=O)c2c1 = True
• Cc1[nH]c(=S)[nH]c(=O)c1Cc1ccccc1 = True
• CC1(C(=O)O)CC(C)(C(=O)O)CC(C)(C(=O)O)C1 (stereo not drawn) = True
• COc1ccc(CC(=O)Nc2cccc(-c3nnc(-c4ccc(C)cc4)o3)c2)cc1OC = True
• CCc1nc(SCC(=O)Nc2cc(C)on2)n[nH]1 = True
• COc1ccccc1-c1cc(C(F)(F)F)nc(N2CCOCC2)n1 = True
• CCOc1ccc(Cl)cc1S(=O)(=O)n1nnc2ccccc21 = True
• CC(C)CCOc1cccc(OCC(=O)N(C)C2CCS(=O)(=O)C2)c1 (stereo not drawn) = True
• COc1ccc(CNC(=O)C2CCCN2S(=O)(=O)c2ccc(S(=O)(=O)N(C)C)cc2)cc1 (stereo not drawn) = True
• CCOC(=O)N1CCN(c2ncnc3c2[nH]c2ccc(OC)cc23)CC1 = True
• COc1ccc(Cl)cc1S(=O)(=O)n1nnc2ccccc21 = True
• c1ccc(CN2CCN(c3ncnc4nc[nH]c34)CC2)cc1 = True
• COc1ccccc1-c1cc(C(F)(F)F)nc(S(=O)(=O)CCCC(=O)N2CCCCC2C)n1 (stereo not drawn) = False
• CCOC(=O)c1[nH]c2ccc(OCC)cc2c1NC(=O)CN1CCN(c2ccccn2)CC1 = True
• COc1ccc(OC)c(S(=O)(=O)n2nnc3ccccc32)c1 = True
• COc1ccc(C(C)=O)cc1COC(=O)c1c(C)noc1C = True
• c1ccc2c(c1)[nH]c1c(N3CCC4(CC3)OCCO4)ncnc12 = False
• CCc1ccc(OCc2nc(-c3ccccn3)no2)c(Br)c1 = False
• COc1ccccc1-c1cc(C(F)(F)F)nc(N2CCCC2)n1 = True
• CCc1ccc(-n2c(SCC(=O)Nc3cc(C)[nH]n3)nc3[nH]ncc3c2=O)cc1 = True

* * *

- methodDescription: viability loss of HPDE-C7K cells – cell-based, fluorescence, HTS, primary screen (AID 431);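 note: 0% = DMSO solvent wells and 100% = doxorubicin-treated wells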
- conditionDescription: HPDE-C7K KRASV12 cells, Alamar Blue viability, 48 h; at 10 µM; hits give high values
Hit rate of the full screen: of about 63,000 compounds, about 1,100 (1.7%) were called active. What follows is part of a selection rich in actives, with near analogues and random picks from the rest. Potency and affinity values are given separately.
endpointName: cytotoxicity (%)

- Cc1ccc2cccc(OCC(=O)NCc3ccco3)c2n1: -8.8
- CCOCCCNS(=O)(=O)c1ccc2c(c1)OCCO2: 11.2
- CCOC(=O)CSC1=C(C#N)C(=O)NC2(CCCCC2)S1: 13.8
- CCOC(=O)CC1=C(C(=O)OCC)C(c2ccc(OC)c(OC)c2)C(C#N)=C(N)O1 (stereo unspecified): 5.7
- O=C(NCc1ccc(Cl)cc1)c1ccc(COCC(F)(F)F)o1: 7.2
- O=C(NCCCN1CCN(CCCNC(=O)c2ccc3c(c2)OCO3)CC1)c1ccc2c(c1)OCO2: -34.5

* * *

- methodDescription: viability loss of HPDE-C7K cells – cell-based, fluorescence, HTS, primary screen (AID 431);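 note: 0% = DMSO solvent wells and 100% = doxorubicin-treated wells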
- conditionDescription: HPDE-C7K KRASV12 cells, Alamar Blue viability, 48 h; at 10 µM
Hit rate of the full screen: of about 63,000 compounds, about 1,100 (1.7%) were called active.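 How the source made its calls: active means compounds whose percent cytotoxicity in the single-dose primary screen, scaled between solvent and toxic-drug controls, exceeds 50; inactive means the rest.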 This is one part of a sample in which actives are shown more often than they occur. Measured potencies and affinities stand elsewhere.
Possible outcomes: 1.0 (active), 0.0 (inactive)

• O=C(COc1ccc(Cl)cc1Cl)NCCCn1ccnc1 = 0.0
• CC1CCN(CCNC(=O)C2CCCN(S(=O)(=O)c3cccc4nonc34)C2)CC1 (stereo not drawn) = 0.0
• Cc1cccc(N2CCN(c3cc(C)nc4nnnn34)CC2C)c1 (stereo not drawn) = 0.0
• CCN(CC)S(=O)(=O)c1cc(C(=O)Oc2ccccc2OC)ccc1OC = 0.0
• COC(=O)c1ccc(C2/C(=C(\O)c3ccc(OC)c(C)c3)C(=O)C(=O)N2c2cc(C)on2)cc1 (stereo not drawn) = 0.0
• O=C(NCc1cccc(F)c1)c1noc2c1CCCC2 = 0.0
• CCOC(=O)C1CCN(C(=O)CCn2c(=O)[nH]c3ccccc3c2=O)CC1 = 0.0
• CCNc1nc(Oc2ccc(=O)n(-c3ccccc3)n2)nc(N2CCOCC2)n1 = 0.0
• Clc1ccc(OCCn2ccnc2)c(Cl)c1 = 0.0
• O=C(OC(C(=O)NCC1CCCO1)c1ccccc1F)c1ccco1 (stereo not drawn) = 0.0
• Cc1cc(C)cc(NS(=O)(=O)c2ccc3[nH]cc(C(=O)NCc4ccco4)c(=O)c3c2)c1 = 0.0
• O=C(Cc1cccs1)NCc1ccc2c(c1)OCO2 = 0.0
• O=c1[nH]c(Cc2ccccc2)nc2c1oc1ccccc12 = 0.0
• CCn1cc(/C=C(/C#N)S(=O)(=O)c2ccccc2)cn1 = 0.0
• N#CCCC12CCCCC1=Nc1ccccc12 (stereo not drawn) = 0.0
• O=C(O)c1oc2ccccc2c1-n1cccc1 = 0.0
• COc1cccc(C(=O)Nc2ccc(NC(=O)C(C)(C)C)cn2)c1 = 0.0
• CCN1CCN(c2ncc3c(n2)CC(c2cc(OC)c(OC)c(OC)c2)CC3=O)CC1 (stereo not drawn) = 1.0
• O=C1CC(c2cccc(Cl)c2)Cc2nc(N3CCOCC3)ncc21 (stereo not drawn) = 0.0
• O=C1CC(c2cccc(Cl)c2)Cc2nc(N3CCN(c4ccccc4)CC3)ncc21 (stereo not drawn) = 1.0
• CCN(CC)C(=O)Oc1ccc2c(=O)c(-c3ccc(OC)cc3)coc2c1 = 0.0
• COc1cc(C2CC(=O)c3cnc(NC(=O)COc4ccccc4)nc3C2)cc(OC)c1OC (stereo not drawn) = 0.0
• OC(Cn1ccnc1)c1ccc(Cl)cc1Cl (stereo not drawn) = 0.0

* * *

- methodDescription: viability loss of HPDE-C7K cells – cell-based, fluorescence, HTS, primary screen (AID 431);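 note: 0% = DMSO solvent wells and 100% = doxorubicin-treated wells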
- conditionDescription: HPDE-C7K KRASV12 cells, Alamar Blue viability, 48 h; at 10 µM
Out of some 63,000 compounds screened, about 1,100 (1.7%) were called active.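 Rule for the calls: active = compounds whose percent cytotoxicity in the single-dose primary screen, scaled between solvent and toxic-drug controls, exceeds 50; inactive = the rest.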 The entries come from a sample that favours actives as a whole. Measured potencies and affinities stand elsewhere.
Possible outcomes: active, inactive

• Cc1ccc2nc(N3CCN(C(=O)c4cccs4)CC3)c(C#N)cc2c1 = inactive
• CCc1nnc(NC(=O)CSc2nnc(Cc3ccccc3)n2-c2ccccc2)s1 = inactive
• O=C(Nc1ccc(F)c(Cl)c1)c1ccc2c(=O)n3c(nc2c1)CCCCC3 = inactive
• CCOC(=O)CSc1nc2cc(OC)ccc2cc1C#N = inactive
• CCOC(=O)CSc1nc2cc(C)ccc2cc1C#N = inactive
• CC(=O)c1c(N2CCCCC2)nc(=O)n(-c2ccccc2)c1C = inactive
• O=C(NC1CCCCC1)c1ccc(Cn2cc(Br)cn2)o1 = inactive
• CCc1ccc(-c2nc(CN3CCCC(C(=O)NCCc4ccc(OC)c(OC)c4)C3)c(C)o2)cc1 (stereo not drawn) = inactive
• CCOC(=O)c1[nH]c(C)c(C(=O)Nc2ccc(Cl)cc2)c1C = inactive
• CCOC(=O)Nc1ccc2c(c1)Sc1ccccc1N2C(=O)CCN1CCOCC1 = inactive
• CCOC(=O)c1c(C)oc2c1cc(O)c1ccccc12 = inactive
• CC(=O)c1sc(NC(=O)c2ccc(Cn3cc(Br)cn3)o2)nc1C = inactive
• CC(=O)c1c(C)[nH]c(C(=O)OCC(=O)Nc2cc(C(F)(F)F)ccc2N2CCOCC2)c1C = inactive
• COC(=O)c1c(C)oc(C)c(C(=O)OC)c1=O = inactive
• CC1CCCC(NC(=O)CSc2nnc(N)s2)C1C (stereo not drawn) = inactive
• CCOC(=O)CSc1nc2cc(OCC)ccc2cc1C#N = active
• O=C(Nc1ccc(F)cc1Cl)c1ccc2c(=O)n3c(nc2c1)CCCCC3 = inactive
• CCOC(=O)Nc1ccc2c(c1)N(C(=O)CCN1CCOCC1)c1ccccc1S2=O (stereo not drawn) = active
• CCOC(=O)c1[nH]c(C)c(C(=O)Nc2ccccc2C)c1C = inactive
• Cc1ccc(CNc2oc(-c3cccs3)nc2C#N)cc1 = inactive
• O=C(Nc1ccc(C(F)(F)F)cc1Cl)c1ccc(Cn2cc(Br)cn2)o1 = active
• COc1cccc2cc(C(=O)Nc3cccnc3N3CCOCC3)c(=O)oc12 = inactive
• CCCCn1c(SCC(=O)NCc2ccco2)nnc1-c1ccoc1C = inactive
